Entry source: paper PMC5749269

# System: 22Rv1 prostate cancer cells
# Format: cell-based
# measurementConditions: 72 h
pIC50: −log10 of the molar value. Where no end group is shown, it is not given here.

| substance | testSystem | pIC50 |
| --- | --- | --- |
| CYNSLVFRIRNSTQRKYRASISTK-OH [scrambled peptide] | 22Rv1 prostate cancer cells | 4.12 |
